Target: Clostridioides difficile
Assay: Inhibition of Taurocholate-induced spore germination in Clostridioides difficile UK1 at […] by spectrophotometric method
Assay type: functional
experimental readout: pKi
Numbers only, as −log10 of the molar value.

chem smiles | pKi
C[C@H](CCC(=O)O)[C@H]1CC[C@H]2[C@@H]3CC[C@@H]4C[C@H](O)CC[C@]4(C)[C@H]3CC[C@]12C | 3.98
C[C@H](CCC(=O)O)[C@H]1CC[C@H]2[C@@H]3[C@H](O)C[C@@H]4C[C@H](O)CC[C@]4(C)[C@H]3CC[C@]12C | 3.42

// moving on: another record for pKi
Task: What reported pKi corresponds to C[C@H](CCC(=O)O)[C@H]1CC[C@H]2[C@@H]3[C@@H](O)C[C@@H]4C[C@H](O)CC[C@]4(C)[C@H]3CC[C@]12C on Clostridioides difficile?
Result: 3.67

Hey, just so you know, these numbers are from ChEMBL document CHEMBL5032538.
